- Test system: fibrin-induced microglia activation
- test_name: Image-based assay of fibrin-induced microglia activation (HTS and dose response)
- Format: cell-based, rat
- condition: fibrin-induced microglia activation, dose response; read-out: Fibrin IC50 (uM) (Suppl. Table 7)
metric_name: IC50 (µM)
Numeric only. Scale: µM

Looking up CCCCCCc1ccc(O)cc1O.Nc1c2ccccc2nc2ccccc12 [Acrisorcin, reference compound] , I found its IC50 recorded as 7

Looking up CC(=O)[C@@]12O[C@](C)(c3ccccc3)O[C@@H]1C[C@H]1[C@@H]3CCC4=CC(=O)CC[C@]4(C)[C@H]3CC[C@@]12C [Algestone acetophenide, reference compound] , I found its IC50 recorded as 1

Looking up O=C1[O][Pt]2([NH][C@@H]3CCCC[C@H]3[NH]2)[O]C1=O [Oxaliplatin, reference compound] , I found its IC50 recorded as 5

Looking up CCCOc1ccc2[nH]c(NC(=O)OC)nc2c1 [Oxybendazole, reference compound] , I found its IC50 recorded as 7

###

- Tested on: primary rat microglia
- test_name: Cell toxicity (dead cells, size <150 μm2) in coated fibrin (cFib) assay;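 note: share of dead cells sized under 150 µm2 at 10 µM in fibrin-stimulated microglia HTS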
- condition: primary microglia HTS, fibrin assay, dead cells (size <150 μm2), compounds at 10 μM
Counter-ions that a name gives are not always drawn.
metric_name: Fibrin % cell toxicity (%)
Numeric only. Scale: %

Looking up CCOC(=O)C1=C(C)NC(C)=C(C(=O)OC)C1c1cccc(Cl)c1Cl (centres unmarked) [Felodipine] , I found its Fibrin % cell toxicity recorded as 1

Looking up CCN(CC)C(=O)c1ccc(O)c(OC)c1 [Etamivan] , I found its Fibrin % cell toxicity recorded as 1

Looking up Cn1c(=O)c2c(ncn2CC(O)CO)n(C)c1=O (centres unmarked) [Dyphylline] , I found its Fibrin % cell toxicity recorded as 0

Looking up C=CCc1ccc(O)c(OC)c1 [Eugenol] , I found its Fibrin % cell toxicity recorded as 0

Looking up C#C[C@]1(OC(C)=O)CC[C@H]2[C@@H]3CCC4=C[C@@H](OC(C)=O)CC[C@@H]4[C@H]3CC[C@@]21C [Ethynodiol Diacetate] , I found its Fibrin % cell toxicity recorded as 1

Looking up CCOC(=O)c1ccc(O)cc1 [Ethylparaben] , I found its Fibrin % cell toxicity recorded as 1

Looking up CCC(=O)O[C@H]1[C@H](O[C@@H]2[C@@H](C)[C@H](O[C@H]3C[C@@](C)(OC)[C@@H](O)[C@H](C)O3)[C@@H](C)C(=O)O[C@H](CC)[C@@](C)(O)[C@H](O)[C@@H](C)C(=O)[C@H](C)C[C@@]2(C)O)O[C@H](C)C[C@@H]1N(C)C [Erythromycin Propionate] , I found its Fibrin % cell toxicity recorded as 1

Looking up CN1C[C@H](C(=O)N[C@]2(C)O[C@@]3(O)[C@@H]4CCCN4C(=O)[C@H](Cc4ccccc4)N3C2=O)C=C2c3cccc4[nH]cc(c34)C[C@H]21 [Ergotamine Tartrate] , I found its Fibrin % cell toxicity recorded as 0

Looking up O=C(CCCl)NCCc1ccccc1 [Fenaclon] , I found its Fibrin % cell toxicity recorded as 1

Looking up C/C=C(/C(=C/C)c1ccc(O)cc1)c1ccc(O)cc1 [Dienestrol] , I found its Fibrin % cell toxicity recorded as 1

Looking up C=CCOC(Cn1ccnc1)c1ccc(Cl)cc1Cl (centres unmarked) [Enilconazole] , I found its Fibrin % cell toxicity recorded as 1

Looking up CCCCCCOc1ccccc1C(N)=O [Exalamide] , I found its Fibrin % cell toxicity recorded as 1

Looking up Nc1nc(N)nc(NC2CC2)n1 [Cyromazine] , I found its Fibrin % cell toxicity recorded as 1

Looking up Cc1cc(-c2ccc(/N=N/c3ccc4c(S(=O)(=O)O)cc(S(=O)(=O)O)c(N)c4c3O)c(C)c2)ccc1/N=N/c1ccc2c(S(=O)(=O)O)cc(S(=O)(=O)O)c(N)c2c1O [Evans Blue] , I found its Fibrin % cell toxicity recorded as 0

Looking up CCCCc1ncc(/C=C(\Cc2cccs2)C(=O)O)n1Cc1ccc(C(=O)O)cc1 [Eprosartan] , I found its Fibrin % cell toxicity recorded as 1

Looking up CCOC(=S)SSC(=S)OCC [Dixanthogen] , I found its Fibrin % cell toxicity recorded as 1

Looking up CC1CC(OC(=O)C(O)c2ccccc2)CC(C)(C)C1 (centres unmarked) [Cyclandelate] , I found its Fibrin % cell toxicity recorded as 0

###

Counter-ions that a name gives are not always drawn.
metric_name: LPS % cell toxicity

Hey, primary rat microglia data for CC=CC1=C(C(=O)O)N2C(=O)[C@@H](NC(=O)[C@H](N)c3ccc(O)cc3)[C@H]2SC1 [Cefprozil] : LPS % cell toxicity came out at 0%

Hey, primary rat microglia data for COc1ccc(C[C@H](N)C(=O)N[C@H]2[C@@H](O)[C@H](n3cnc4c(N(C)C)ncnc43)O[C@@H]2CO)cc1.Cl.Cl : LPS % cell toxicity came out at 52%

Hey, primary rat microglia data for CSCC[C@H](NC(=O)[C@H](Cc1c[nH]c2ccccc12)NC(=O)CCNC(=O)OC(C)(C)C)C(=O)N[C@@H](CC(=O)O)C(=O)N[C@@H](Cc1ccccc1)C(N)=O [Pentagastrin] : LPS % cell toxicity came out at 1%

Hey, primary rat microglia data for CCC1(C2=NCCN2)Cc2ccccc2O1 (centres unmarked) [Efaroxan, Efaroxan Hydrochloride] : LPS % cell toxicity came out at 0%

Hey, primary rat microglia data for CC(=O)NCCCS(=O)(=O)[O-].CC(=O)NCCCS(=O)(=O)[O-].[Ca+2] [Acamprosate Calcium] : LPS % cell toxicity came out at 0%

Hey, primary rat microglia data for CCC1(c2ccc(N)cc2)CCC(=O)NC1=O (racemic) : LPS % cell toxicity came out at 0%

Hey, primary rat microglia data for CC(=O)Oc1c(C)cccc1C(=O)O [Cresopyrine, Cresopirine] : LPS % cell toxicity came out at 1%

Hey, primary rat microglia data for C[C@H](N[C@@H](CCc1ccccc1)C(=O)O)C(=O)N1CCC[C@H]1C(=O)O [Enalaprilat] : LPS % cell toxicity came out at 0%

Hey, primary rat microglia data for CCOP(=S)(OCC)Oc1cc(C)nc(C(C)C)n1 [Diazinon, Dimpylate] : LPS % cell toxicity came out at 0%

Hey, primary rat microglia data for NC(CO)(CO)CO [Tris] : LPS % cell toxicity came out at 1%

Hey, primary rat microglia data for CC1=NN(c2ccccc2)C(=O)C1 : LPS % cell toxicity came out at 0%

Hey, primary rat microglia data for NS(=O)(=O)c1cc2c(cc1C(F)(F)F)NC(Cc1ccccc1)NS2(=O)=O (centres unmarked) [Bendrofumethiazide, Bendroflumethiazide] : LPS % cell toxicity came out at 1%

Hey, primary rat microglia data for CC=CC(=O)N(CC)c1ccccc1C [Crotamiton] : LPS % cell toxicity came out at 0%

Hey, primary rat microglia data for COc1ccc(Cl)cc1C(=O)NCCc1ccc(S(=O)(=O)NC(=O)NC2CCCCC2)cc1 [Glibenclamide, Glyburide] : LPS % cell toxicity came out at 0%

Hey, primary rat microglia data for CN(CCOc1ccc(CC2SC(=O)NC2=O)cc1)c1ccccn1 (centres unmarked) [Rosiglitazone, Rosiglitazone Maleate] : LPS % cell toxicity came out at 1%

Hey, primary rat microglia data for O=S(=O)([O-])CCSSCCS(=O)(=O)[O-].[Na+].[Na+] [Dimesna] : LPS % cell toxicity came out at 0%

Hey, primary rat microglia data for NCC[C@H](O)C(=O)N[C@@H]1C[C@H](N)[C@@H](O[C@H]2O[C@H](CN)[C@@H](O)[C@H](O)[C@H]2O)[C@H](O)[C@H]1O[C@H]1O[C@H](CO)[C@@H](O)[C@H](N)[C@H]1O.O=S(=O)(O)O.O=S(=O)(O)O [Amikacin Sulfate] : LPS % cell toxicity came out at 0%

Hey, primary rat microglia data for CNC[C@H](O)c1ccc(O)c(O)c1.O=C(O)C(O)C(O)C(=O)O : LPS % cell toxicity came out at 0%

Hey, primary rat microglia data for CC(=O)OC1CN2CCC1CC2.Cl (centres unmarked) [Aceclidine Hydrochloride, Aceclidine] : LPS % cell toxicity came out at 0%

Hey, primary rat microglia data for C=CC(N)CCC(=O)O (racemic) [(±)-gamma-vinyl Gaba, Vigabatrin] : LPS % cell toxicity came out at 0%

Hey, primary rat microglia data for Nc1ncn([C@@H]2O[C@H](CO)[C@@H](O)[C@H]2O)c(=O)n1 [5-azacytidine, Azacitidine] : LPS % cell toxicity came out at 0%

Hey, primary rat microglia data for CC(N)C(=O)OC(C)(C)Cc1ccc(Cl)cc1.Cl (centres unmarked) [Alaproclate Hydrochloride, Alaproclate] : LPS % cell toxicity came out at 0%

Hey, primary rat microglia data for NC(=O)CC[C@H](N)C(=O)O [L-glutamine, Glutamine (I)] : LPS % cell toxicity came out at 0%

Hey, primary rat microglia data for CCCCC(CC)COC(=O)CC(C(=O)OCC(CC)CCCC)S(=O)(=O)[O-].[Na+] (centres unmarked) [Docusate Sodium] : LPS % cell toxicity came out at 0%

Hey, primary rat microglia data for Cl.NCC(O)c1ccc(O)cc1 (racemic) : LPS % cell toxicity came out at 0%

Hey, primary rat microglia data for NC(=O)[C@@H]1CCCN1C(=O)[C@H](Cc1cnc[nH]1)NC(=O)[C@@H]1CCC(=O)N1 [Protirelin] : LPS % cell toxicity came out at 1%

Hey, primary rat microglia data for CC(=O)O[C@H]1CC[C@@]2(C)C(=CC[C@@H]3[C@@H]2CC[C@]2(C)C(=O)CC[C@@H]32)C1 [Praesterone Acetate, Prasterone Acetate] : LPS % cell toxicity came out at 0%

Hey, primary rat microglia data for O.OC[C@@H](O)[C@@H](O[C@@H]1O[C@H](CO)[C@H](O)[C@H](O)[C@H]1O)[C@H](O)[C@@H](O)CO [D-lactitol Monohydrate] : LPS % cell toxicity came out at 0%

Hey, primary rat microglia data for CNCC(=O)c1ccc(O)c(O)c1.Cl [Adrenolone Hydrochloride] : LPS % cell toxicity came out at 0%

Hey, primary rat microglia data for C[C@@](Cc1ccc(O)c(O)c1)(NN)C(=O)O [S-(−)-carbidopa, Carbidopa] : LPS % cell toxicity came out at 0%

Hey, primary rat microglia data for CC[C@]1(O)C[C@@H]2CN(CCc3c([nH]c4ccccc34)[C@@](C(=O)OC)(c3cc4c(cc3OC)N(C)[C@H]3[C@@](O)(C(N)=O)[C@H](O)[C@]5(CC)C=CCN6CC[C@]43[C@@H]65)C2)C1 [Vindesine, Vindesine Sulfate] : LPS % cell toxicity came out at 9%

Hey, primary rat microglia data for O=P1(N(CCCl)CCCl)NCCCO1 (centres unmarked) : LPS % cell toxicity came out at 0%
